Target: human TLR8 (Homo sapiens, UniProt Q9NR97)
Construct: host or cells: HEK-293, then stably transfected with pNiFty2(NF-kappaB)-luciferase reporter
Sequence (Q9NR97 27-1041): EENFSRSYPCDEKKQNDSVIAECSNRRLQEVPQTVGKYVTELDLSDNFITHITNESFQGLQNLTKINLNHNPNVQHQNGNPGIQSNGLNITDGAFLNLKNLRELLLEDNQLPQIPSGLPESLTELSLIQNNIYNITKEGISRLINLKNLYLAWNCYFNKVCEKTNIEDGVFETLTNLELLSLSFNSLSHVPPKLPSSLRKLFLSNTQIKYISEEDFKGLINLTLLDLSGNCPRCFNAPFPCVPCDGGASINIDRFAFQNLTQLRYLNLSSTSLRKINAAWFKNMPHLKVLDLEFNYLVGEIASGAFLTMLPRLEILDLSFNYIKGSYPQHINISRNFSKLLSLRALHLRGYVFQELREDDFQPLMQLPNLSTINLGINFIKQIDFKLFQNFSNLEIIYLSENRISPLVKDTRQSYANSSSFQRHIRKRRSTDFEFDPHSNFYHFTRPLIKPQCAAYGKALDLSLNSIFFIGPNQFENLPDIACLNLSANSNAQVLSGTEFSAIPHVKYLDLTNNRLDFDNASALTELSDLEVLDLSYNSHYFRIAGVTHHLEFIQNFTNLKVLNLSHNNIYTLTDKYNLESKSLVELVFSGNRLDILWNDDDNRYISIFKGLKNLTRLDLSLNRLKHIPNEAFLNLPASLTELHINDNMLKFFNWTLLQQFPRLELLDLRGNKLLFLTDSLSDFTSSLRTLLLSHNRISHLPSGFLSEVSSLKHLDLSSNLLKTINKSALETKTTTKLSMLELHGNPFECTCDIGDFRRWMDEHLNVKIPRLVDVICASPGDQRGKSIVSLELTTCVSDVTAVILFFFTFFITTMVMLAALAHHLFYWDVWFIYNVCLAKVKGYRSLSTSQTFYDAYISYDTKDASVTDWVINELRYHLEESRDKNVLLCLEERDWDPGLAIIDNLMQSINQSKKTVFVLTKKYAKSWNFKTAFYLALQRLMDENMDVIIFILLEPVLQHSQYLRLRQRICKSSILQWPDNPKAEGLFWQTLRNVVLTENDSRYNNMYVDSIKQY
Test: HEK-293 human TLR8 NF-kappaB luciferase reporter assay (CL097)
Assay type: cell-based
Settings: HEK-293 assay format; read-out: HEK/hTLR8 IC50
assay metric: log10 of IC50 (log10 of the value in nM)
Give log10 of IC50, with IC50 taken in nM.

For record CCCCC(O)C1CN(c2ccc(C#N)c3ncccc23)CC(C)O1 (single isomer, unassigned) the listed log10 of IC50 is 0.70

For record C[C@@H]1CN(c2ccc(C#N)c3ncccc23)C[C@H](COc2ccccc2F)O1 the listed log10 of IC50 is 1.93

For record COc1ccnc(NC[C@H]2CN(c3ccc(C#N)c4ncccc34)C[C@@H](C)O2)c1 the listed log10 of IC50 is 0.30

For record C[C@@H]1CN(c2ccc(C#N)c3ncccc23)C[C@H](C(=O)C2CCCCC2)O1 the listed log10 of IC50 is 0.70

For record C[C@@H]1CN(C[C@H]2CN(c3ccc(C#N)c4ncccc34)C[C@@H](C)O2)CCN1 the listed log10 of IC50 is 0.51

For record CC1CN(c2ccc(C#N)c3ncccc23)CC(CN2CCCC2C(C)C)O1 (mixture of isomers) the listed log10 of IC50 is 2.03

For record C[C@@H]1CN(c2ccc(C#N)c3ncccc23)C[C@H](CNC2CCC2)O1 the listed log10 of IC50 is 2.14

For record C[C@@H]1CN(c2ccc(C#N)c3ncccc23)C[C@H](CCl)O1 the listed log10 of IC50 is 1.30
